# Test system: T-47D breast
# assayName: NCI tumour cell line growth inhibition, 48 h
Assign TGI to each entry below.
One number for each entry, in µM.

| compound | testedSystem | TGI / µM |
| --- | --- | --- |
| O=C(c1ccc(Cl)cc1)c1no[n+]([O-])c1C(=O)c1ccc(Cl)cc1 | T-47D breast | 43.1 |
| O=C1C(Cl)=C(N2CCN(CCOCCO)CC2)C(=O)c2ncccc21 | T-47D breast | 5.51 |

Quick request: TGI for each listed item, please.
1. O=C1c2[nH]c3ccccc3c2CCN2CCCCC12 (centres undefined)
2. Cn1ncc(NC(=O)c2nc(-c3c(F)cccc3F)sc2N)c1N1CC[C@@H](N)[C@H](F)CC1

1: 74.9; 2: 34.2
